# STUDY SYSTEM: cathepsin L (Homo sapiens)
# Construct: made in house
# Sequence (P07711 114-333): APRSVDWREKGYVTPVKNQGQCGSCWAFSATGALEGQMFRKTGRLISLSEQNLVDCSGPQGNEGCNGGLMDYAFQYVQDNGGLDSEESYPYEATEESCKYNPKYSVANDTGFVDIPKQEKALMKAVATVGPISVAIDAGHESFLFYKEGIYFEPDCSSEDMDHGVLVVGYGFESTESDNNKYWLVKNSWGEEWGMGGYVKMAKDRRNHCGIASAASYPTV
# ASSAY TEXT: Kinetic parameters of ACC substrates with cathepsin L
# Type: biochemical
# CONDITION SET: Table S2; cathepsin L; four independent experiments, S.D. below 15%; read-out: KM
Non-standard residues stand in square brackets, D forms with d. *: point of attachment. Phe(3-Cl) = N[C@@H](Cc1cccc(Cl)c1)C(=O)O; ACC = NC(=O)Cc1cc(=O)oc2cc(N*)ccc12; hArg = N=C(N)NCCCC[C@H](N)C(=O)O; ClZ = O=C(OCc1ccccc1Cl)*; Orn = NCCC[C@H](N)C(=O)O; Dap = NC[C@H](N)C(=O)O; OBn = c1ccc(CO*)cc1; Bn = c1ccc(C*)cc1
# Km per entry
Give the figure together with its unit, number first.

[[record]]
substance = "Ac-[Dap][Orn][Phe(3-Cl)][hArg]-{ACC} (SMILES CC(=O)N[C@@H](CN)C(=O)N[C@@H](CCCN)C(=O)N[C@@H](Cc1cccc(Cl)c1)C(=O)N[C@@H](CCCCNC(=N)N)C(=O)Nc1ccc2c(CC(N)=O)cc(=O)oc2c1)"
result = "4.21 µM"

[[record]]
substance = "Ac-[Dap][Orn][Phe(3-Cl)]R-{ACC} (SMILES CC(=O)N[C@@H](CN)C(=O)N[C@@H](CCCN)C(=O)N[C@@H](Cc1cccc(Cl)c1)C(=O)N[C@@H](CCCNC(=N)N)C(=O)Nc1ccc2c(CC(N)=O)cc(=O)oc2c1)"
result = "5.38 µM"

[[record]]
substance = "Ac-[Dap][Orn][Phe(3-Cl)]C(Bn)-{ACC} (SMILES CC(=O)N[C@@H](CN)C(=O)N[C@@H](CCCN)C(=O)N[C@@H](Cc1cccc(Cl)c1)C(=O)N[C@@H](CSCc1ccccc1)C(=O)Nc1ccc2c(CC(N)=O)cc(=O)oc2c1)"
result = "4.28 µM"

[[record]]
substance = "Ac-[Dap][Orn][Phe(3-Cl)]E(OBn)-{ACC} (SMILES CC(=O)N[C@@H](CN)C(=O)N[C@@H](CCCN)C(=O)N[C@@H](Cc1cccc(Cl)c1)C(=O)N[C@@H](CCC(=O)OCc1ccccc1)C(=O)Nc1ccc2c(CC(N)=O)cc(=O)oc2c1)"
result = "5.67 µM"

[[record]]
substance = "Ac-[Dap][Orn][Phe(3-Cl)]L-{ACC} (SMILES CC(=O)N[C@@H](CN)C(=O)N[C@@H](CCCN)C(=O)N[C@@H](Cc1cccc(Cl)c1)C(=O)N[C@@H](CC(C)C)C(=O)Nc1ccc2c(CC(N)=O)cc(=O)oc2c1)"
result = "3.7 µM"


Okay, now this substance:
Can you look up Km on cathepsin L (Homo sapiens) for Ac-[Dap][Orn][Phe(3-Cl)]K(ClZ)-{ACC} (SMILES CC(=O)N[C@@H](CN)C(=O)N[C@@H](CCCN)C(=O)N[C@@H](Cc1cccc(Cl)c1)C(=O)N[C@@H](CCCCNC(=O)OCc1ccccc1Cl)C(=O)Nc1ccc2c(CC(N)=O)cc(=O)oc2c1) ?
2.98 µM

* * *

# STUDY SYSTEM: cathepsin S (Homo sapiens, UniProt P25774)
# Construct: made in house
# Sequence (P25774 115-331): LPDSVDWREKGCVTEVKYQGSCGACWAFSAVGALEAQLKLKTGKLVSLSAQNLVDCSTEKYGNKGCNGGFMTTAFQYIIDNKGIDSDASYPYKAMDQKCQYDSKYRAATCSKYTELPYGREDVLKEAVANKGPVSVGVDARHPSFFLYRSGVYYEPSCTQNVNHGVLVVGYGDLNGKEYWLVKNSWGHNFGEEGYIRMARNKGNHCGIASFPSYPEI
# ASSAY TEXT: Substrate selectivity screening, rate of hydrolysis, cathepsin S
# Type: biochemical
# CONDITION SET: Table S4; substrate 100µM, cathepsin 5nM; pH 5.5, 37 °C; average of at least three screenings
Non-standard residues stand in square brackets, D forms with d. *: point of attachment. Phe(F5) = N[C@@H](Cc1c(F)c(F)c(F)c(F)c1F)C(=O)O; Phe(3,4-F2) = N[C@@H](Cc1ccc(F)c(F)c1)C(=O)O; ACC = NC(=O)Cc1cc(=O)oc2cc(N*)ccc12; Tic = O=C(O)[C@@H]1Cc2ccccc2CN1; Orn = NCCC[C@H](N)C(=O)O; Dab = NCC[C@H](N)C(=O)O
READOUT KIND: Relative substrate activity (rate of hydrolysis), cathepsin S (RFU/s)
All answers are understood in RFU/s, so give the number only.

Can you look up Relative substrate activity (rate of hydrolysis), cathepsin S on cathepsin S (Homo sapiens, UniProt P25774) for Ac-[Tic][Dab][Phe(3,4-F2)]R-{ACC} (SMILES CC(=O)N1Cc2ccccc2C[C@H]1C(=O)N[C@@H](CCN)C(=O)N[C@@H](Cc1ccc(F)c(F)c1)C(=O)N[C@@H](CCCNC(=N)N)C(=O)Nc1ccc2c(CC(N)=O)cc(=O)oc2c1) ?
2.8

Can you look up Relative substrate activity (rate of hydrolysis), cathepsin S on cathepsin S (Homo sapiens, UniProt P25774) for Ac-H[dL][Phe(F5)][Orn]-{ACC} (SMILES CC(=O)N[C@@H](Cc1c[nH]cn1)C(=O)N[C@H](CC(C)C)C(=O)N[C@@H](Cc1c(F)c(F)c(F)c(F)c1F)C(=O)N[C@@H](CCCN)C(=O)Nc1ccc2c(CC(N)=O)cc(=O)oc2c1) ?
0.0
